# System: Clostridium sporogenes DSM 1664
# PROCEDURE SUMMARY: fold change of Tryptamine concentration vs plate DMSO controls (fold change (ratio)); higher = more amine produced, active = hit call of the paper (significant change in both replicates, either direction)
# PROTOCOL CONDITIONS: incubation time: 27 h, anaerobic, 37 °C
Structures can show the parent of a compound that is named as a salt.

| COMPOUND | fold change of Tryptamine concentration |
| --- | --- |
| CN(C)CC/C=C1/c2ccccc2Sc2ccc(Cl)cc21 [Chlorprothixene hydrochloride] (20 µM) | 0.997 |
| CN[C@@H]1[C@@H](O[C@H]2O[C@H](CO)[C@@H](N)[C@H](O)[C@H]2O)OC2C[C@@H](N)[C@@H](O[C@H]3[C@H](O)[C@@H](O)[C@H](N)C[C@@H]3N)OC2[C@@H]1O (stereo partly drawn) [Apramycin] (20 µM) | 0.998 |
| CC(=O)OCC(=O)NCCCOc1cccc(CN2CCCCC2)c1 [Roxatidine acetate hydrochloride] (20 µM) | 0.989 |

====

# System: Escherichia coli IAI1
# PROCEDURE SUMMARY: growth (OD595) fold change vs plate DMSO controls (fold change (ratio)); higher = more growth
# PROTOCOL CONDITIONS: incubation time: 27 h, anaerobic, 37 °C
Where a name gives a salt, the structure may show the parent alone.

| MOLECULE | growth |
| --- | --- |
| CC1(C)O[C@@H]2C[C@H]3[C@@H]4C[C@H](F)C5=CC(=O)C=C[C@]5(C)[C@H]4[C@@H](O)C[C@]3(C)[C@]2(C(=O)CO)O1 [Flunisolide] (20 µM) | 0.993 |
| Nc1nc(NC2CC2)c2ncn([C@H]3C=C[C@@H](CO)C3)c2n1 [Abacavir sulfate] (20 µM) | 1.05 |
| NS(=O)(=O)c1cc2c(cc1Cl)NC(C(Cl)Cl)NS2(=O)=O (centres undefined) [Trichlormethiazide] (20 µM) | 1.08 |
| O=C(CCCN1CC=C(n2c(=O)[nH]c3ccccc32)CC1)c1ccc(F)cc1 [Droperidol] (20 µM) | 0.959 |
| CC(=O)Oc1cc(C(F)(F)F)ccc1C(=O)O [Triflusal] (20 µM) | 0.971 |
| CC(=O)NCCCS(=O)(=O)O [Acamprosate calcium] (20 µM) | 0.999 |
| CC12CC3CC(C)(C1)CC(N)(C3)C2 [Memantine hydrochloride] (20 µM) | 0.987 |
| C=CC1=C(C(=O)O)N2C(=O)[C@@H](NC(=O)/C(=N\OCC(=O)O)c3csc(N)n3)[C@H]2SC1 [Cefixime] (20 µM) | 0.0263 |
| CCN(CC)CCOc1ccc(C(=C(Cl)c2ccccc2)c2ccccc2)cc1 [(Z,E) Clomiphene citrate] (20 µM) | 1 |
| Cc1[nH]c(=O)c(C#N)cc1-c1ccncc1 [Milrinone] (20 µM) | 1.05 |
| Nc1nc2n[nH]nc2c(=O)[nH]1 [Azaguanine-8] (20 µM) | 1.05 |
| CN[C@@H]1[C@H](O[C@H]2[C@H](O[C@H]3[C@H](O)[C@@H](O)[C@H](NC(=N)N)[C@@H](O)[C@@H]3NC(=N)N)O[C@@H](C)[C@]2(O)CO)O[C@@H](CO)[C@H](O)[C@H]1O [Dihydrostreptomycin sulfate] (20 µM) | 0.98 |
| CC(C)(C)NC[C@H](O)COc1cccc2c1CCCC2=O [(-) Levobunolol hydrochloride] (20 µM) | 0.973 |
| CN1CCc2cccc3c2[C@H]1Cc1ccc(O)c(O)c1-3 [R(-) Apomorphine hydrochloride hemihydrate] (20 µM) | 1.03 |
| CC(C(=O)O)c1ccc(C(=O)c2cccs2)cc1 (centres undefined) [Suprofen] (20 µM) | 0.983 |
| Cc1ccnc(NS(=O)(=O)c2ccc(N)cc2)n1 [Sulfamerazine] (20 µM) | 1.06 |
| CNc1ncnc2c1ncn2[C@@H]1O[C@H](CO)[C@@H](O)[C@H]1O [N6-methyladenosine] (20 µM) | 0.994 |
| NS(=O)(=O)c1cc2c(cc1Cl)NC(Cc1ccccc1)NS2(=O)=O (centres undefined) [Benzylhydrochlorothiazide] (20 µM) | 1.05 |
| Cc1ccccc1N1C(=O)c2cc(S(N)(=O)=O)c(Cl)cc2NC1C (centres undefined) [Metolazone] (20 µM) | 0.984 |
| CCCCCCCCc1c(CC)nc2ncnn2c1N (20 µM) | 1.05 |
| Cc1cnc(C(=O)O)c[n+]1[O-] [Acipimox] (20 µM) | 0.996 |
| CCn1cc(C(=O)O)c(=O)c2cnc(N3CCCC3)nc21 [Piromidic acid] (20 µM) | 1.01 |
| CC(C)(S)C(N)C(=O)O (racemic) [D,L-Penicillamine] (20 µM) | 1.08 |
| CO[C@@H]1[C@@H](O[C@@H]2O[C@H](C)[C@@H](O[C@H]3C[C@@](C)(O)[C@@H](O)[C@H](C)O3)[C@H](N(C)C)[C@H]2O)[C@@H](CC=O)C[C@@H](C)[C@@H](O[C@H]2CC[C@H](N(C)C)[C@@H](C)O2)/C=C/C=C/C[C@@H](C)OC(=O)C[C@H]1OC(C)=O [Acetyl spiramycin] (20 µM) | 1.03 |

====

# System: Escherichia coli IAI1
# PROCEDURE SUMMARY: fold change of Putrescine concentration vs plate DMSO controls (fold change (ratio)); higher = more amine produced, active = hit call of the paper (significant change in both replicates, either direction)
# PROTOCOL CONDITIONS: incubation time: 27 h, anaerobic, 37 °C
Structures can show the parent of a compound that is named as a salt.
# label = T if fold change of Putrescine concentration >= 1 else F

| MOLECULE | GROUP LABEL |
| --- | --- |
| CCCCC(=O)O[C@H]1CC[C@H]2[C@@H]3CCc4cc(O)ccc4[C@H]3CC[C@]12C [Estradiol Valerate] (20 µM) | F |
| CNC(=O)c1c(I)c(C(=O)NCC(=O)Nc2c(I)c(C(=O)O)c(I)c(C(=O)NCCO)c2I)c(I)c(N(C)C(C)=O)c1I [Ioxaglic acid] (20 µM) | T |
| CN(C)CCC=C1c2ccccc2COc2ccccc21 [Doxepin hydrochloride] (20 µM) | T |

====

# Tested on: Escherichia coli IAI1
# PROCEDURE SUMMARY: fold change of Cadaverine concentration vs plate DMSO controls (fold change (ratio)); higher = more amine produced, active = hit call of the paper (significant change in both replicates, either direction)
# PROTOCOL CONDITIONS: incubation time: 27 h, anaerobic, 37 °C
Where a name gives a salt, the structure may show the parent alone.

| COMPOUND | STUDY SYSTEM | fold change of Cadaverine concentration |
| --- | --- | --- |
| CN1CCN(C2=Nc3ccccc3Oc3ccc(Cl)cc32)CC1 [Loxapine succinate] (20 µM) | Escherichia coli IAI1 | 1.01 |
| CN1C(C(=O)Nc2ccccn2)=C(O)c2ccccc2S1(=O)=O [Piroxicam] (20 µM) | Escherichia coli IAI1 | 1.02 |
| C=C1C[C@H]2[C@@H]3C=C(C)C4=CC(=O)CC[C@]4(C)[C@H]3CC[C@]2(C)[C@@]1(OC(C)=O)C(C)=O [Melengestrol acetate] (20 µM) | Escherichia coli IAI1 | 1.02 |
| CN(C(=O)CN(CCO)CC(=O)N(C)C(C)(C)Cc1ccccc1)C(C)(C)Cc1ccccc1 [Oxethazaine] (20 µM) | Escherichia coli IAI1 | 1.01 |
| CC(=O)N(O)CCCCCNC(=O)CCC(=O)N(O)CCCCCNC(=O)CCC(=O)N(O)CCCCCN [Deferoxamine mesylate] (20 µM) | Escherichia coli IAI1 | 0.996 |
| N=C(N)NCC1COC2(CCCCC2)O1 (stereo not given) [Guanadrel sulfate] (20 µM) | Escherichia coli IAI1 | 0.99 |
| Cc1c(C)c2c(c(C)c1O)CCC(C)(C(=O)O)O2 (stereo not given) [Trolox] (20 µM) | Escherichia coli IAI1 | 0.986 |
| O=C(c1ccc(OCCN2CCCCC2)cc1)c1c(-c2ccc(O)cc2)sc2cc(O)ccc12 [Raloxifene hydrochloride] (20 µM) | Escherichia coli IAI1 | 1.01 |
| CCN(CC)CCOC(=O)C1(c2ccc([N+](=O)[O-])cc2)CCCC1 [Nitrocaramiphen hydrochloride] (20 µM) | Escherichia coli IAI1 | 1.03 |
| CC1(C)[C@@H](O[C@H]2O[C@H](C(=O)O)[C@@H](O)[C@H](O)[C@H]2O[C@@H]2O[C@H](C(=O)O)[C@@H](O)[C@H](O)[C@H]2O)CC[C@]2(C)[C@H]3C(=O)C=C4[C@@H]5C[C@@](C)(C(=O)O)CC[C@]5(C)CC[C@@]4(C)[C@]3(C)CC[C@@H]12 [Glycyrrhizic acid] (50 µM) | Escherichia coli IAI1 | 1.05 |
| COc1cc(C(=O)N2CCOCC2)cc(OC)c1OC [Trimetozine] (20 µM) | Escherichia coli IAI1 | 0.99 |
| Clc1ccc(COC(Cn2ccnc2)c2ccc(Cl)cc2Cl)c(Cl)c1 (stereo not given) [Miconazole] (20 µM) | Escherichia coli IAI1 | 0.974 |
| CN(CCCCCCCCCCN(C)C(=O)Oc1cccc([N+](C)(C)C)c1)C(=O)Oc1cccc([N+](C)(C)C)c1 [Demecarium bromide] (20 µM) | Escherichia coli IAI1 | 1.03 |
| CC(C)(C)CC(C)(C)c1ccc(OCCOCC[N+](C)(C)Cc2ccccc2)cc1 [Benzethonium chloride] (20 µM) | Escherichia coli IAI1 | 1.02 |
| O=C(OCC(O)CO)c1ccccc1Nc1ccnc2cc(Cl)ccc12 (stereo not given) [Glafenine hydrochloride] (20 µM) | Escherichia coli IAI1 | 0.998 |
| c1ccc(CC2=NCCN2)cc1 [Tolazoline hydrochloride] (20 µM) | Escherichia coli IAI1 | 1.06 |
| CNNCc1ccc(C(=O)NC(C)C)cc1 [Procarbazine hydrochloride] (20 µM) | Escherichia coli IAI1 | 0.984 |
| NS(=O)(=O)c1cc(C(=O)NN2C[C@@H]3[C@H]4CC[C@H](C4)[C@@H]3C2)ccc1Cl [Tripamide] (20 µM) | Escherichia coli IAI1 | 0.928 |
| O=C(NCCNCC(O)COc1ccc(O)cc1)N1CCOCC1 (stereo not given) [Xamoterol hemifumarate] (20 µM) | Escherichia coli IAI1 | 1 |
| CN(C)CCC=C1c2ccccc2CCc2ccccc21 [Amitryptiline hydrochloride] (20 µM) | Escherichia coli IAI1 | 1.01 |
